# tested target: HIV-1 Tat (Human immunodeficiency virus 1, UniProt P04608 P04608:1-86)
# experimental protocol: competition; D1/2; wild type 90 nM
observable: IC50 (nM)

INSERT INTO measurements (binder, reported_result) VALUES
  ('TAR bulge CCC (ssRNA, [23,24,25]) RNA: GGGUCUCUCUGGUUAGACCAGACCCGAGCCUGGGAGCUCUCUGGCUAACUAGGGAACCC', 1780),
  ('TAR bulge CCU (ssRNA, [23,24]) RNA: GGGUCUCUCUGGUUAGACCAGACCUGAGCCUGGGAGCUCUCUGGCUAACUAGGGAACCC', 1330),
  ('TAR G26 to C26; C39 to G39 (ssRNA) RNA: GGGUCUCUCUGGUUAGACCAGAUUUCAGCCUGGGAGCUGUCUGGCUAACUAGGGAACCC', 2370),
  ('TAR bulge CUC (ssRNA, [23,25]) RNA: GGGUCUCUCUGGUUAGACCAGACUCGAGCCUGGGAGCUCUCUGGCUAACUAGGGAACCC', 2140),
  ('TAR bulge U (ssRNA, [23-25]) RNA: GGGUCUCUCUGGUUAGACCAGAUGAGCCUGGGAGCUCUCUGGCUAACUAGGGAACCC', 673);
